# System: Trypanosoma cruzi
# method.notes: Ratio of benznidazole IC50 to compound IC50 for bloodstream form of Trypanosoma cruzi Y
# Format: functional
measure: Ratio IC50

Value of measured Ratio IC50 for the entry CC1(C)OC2=C(C(=O)C(=O)c3ccccc32)C1n1cc(-c2ccc(F)cc2)nn1 (stereo unspecified) : 2.5

The measured Ratio IC50 associated with Cc1ccc(-c2cn(C3C4=C(OC3(C)C)c3ccccc3C(=O)C4=O)nn2)cc1 (stereo unspecified) reads 2.5

For reference, reported Ratio IC50 for "[N-]=[N+]=NC1=C(Cl)C(=O)c2ccccc2C1=O" stands at 2

The reported value for CC1(C)OC2=C(C(=O)C(=O)c3ccccc32)C1n1cc(-c2ccc([N+](=O)[O-])cc2)nn1 (stereo unspecified) in terms of Ratio IC50 is 2.5

Notebook: "O=C1C=C(n2cc(CO)nn2)C(=O)c2ccccc21" , Ratio IC50 read as 5.8

GET /value?item= "O=C1C=C(n2cc(-c3ccccc3)nn2)C(=O)c2ccccc21" &field=Ratio IC50 returns 9.5
